// TGI lookup, one value per entry
System: 786-0 renal
Test: NCI tumour cell line growth inhibition, 48 h
// note: answer is a bare numeric in µM

Field: example entries. Status: answers known.
| compound | unit | TGI |
| --- | --- | --- |
| C=C(C)[C@@H]1C/C=C(/CO)CC[C@H]2O[C@]2(C)CC/C=C(\C)CC1 | µM | 34.2 |
| COc1cccc2c1C(=O)c1c(O)c3c(c(O)c1C2=O)C[C@@](O)(C(C)=O)C[C@@H]3OC1CC([N+]([O-])(Cc2ccccc2)Cc2ccccc2)C(O)C(C)O1 (stereo partly drawn) | µM | 2.86 |
| Cc1cc(C)nc(NS(=O)(=O)c2ccc(Nc3c4ccccc4nc4c(C(=O)Nc5ccc(S(=O)(=O)Nc6cc(C)on6)cc5)ccc(Cl)c34)cc2)n1 | µM | 34.1 |

Pending compound:
Item `O=C(Nc1ccc2ncnc(Nc3ccc(Oc4cccc(F)c4)c(Cl)c3)c2c1)c1ccc(CN2CCOCC2)cc1` ; assay system 786-0 renal; TGI reported as 4.33

====

Test system: A549 NSCLC
Test: NCI tumour cell line growth inhibition, 48 h
property measured: TGI

Measured TGI, `Cc1c(OCCCOc2ccc3c(=O)cc(-c4ccccc4)oc3c2C)ccc2c(=O)cc(-c3ccccc3)oc12` : > 100 µM

Measured TGI, O=C1C=CC(=O)C2C1Cc1ccccc1C2c1ccccc1 (stereo not given) : > 100 µM

====

System: SN12C renal
Assay: NCI tumour cell line growth inhibition, 48 h
property measured: TGI

| compound | system under test | TGI |
| --- | --- | --- |
| Cc1nc(N)sc1C(=O)Nc1ncn[nH]1 | SN12C renal | > 100 µM |
| COc1cccc2c1C(=O)c1c(O)c3c(c(O)c1C2=O)C[C@@](O)(C(=O)CN1CCOCC1)C[C@@H]3OC1CC(N)C(O)C(C)O1 (some centres not stated) | SN12C renal | > 100 µM |
| c1cc(CN2CCCNCCNCCCNCC2)ccc1CN1CCCNCCNCCCNCC1 | SN12C renal | > 100 µM |

Measured TGI, CC(N)Cc1ccc(Cl)cc1 (configuration not stated) : > 100 µM

Measured TGI, Nc1ncnc2c1ncn2C1OC(CO)C(O)C1NS(=O)(=O)c1ccccc1 (configuration not stated) : > 100 µM

====

System: SNB-75 CNS
Experiment: NCI tumour cell line growth inhibition, 48 h
// TGI lookup, one value per entry
// note: answer is a bare numeric in µM

| item smiles | unit | TGI |
| --- | --- | --- |
| CCN(CC)CCCOc1ccc2ncnc(Nc3ccc(Oc4cccc(C(F)(F)F)c4)c(Cl)c3)c2c1 | µM | 2.86 |

Measured TGI, `O=C1Nc2ccccc2/C1=C\c1cccc(/C=C2/C(=O)Nc3ccccc32)n1` : 3.46

====

System: SF-539 CNS
Assay: NCI tumour cell line growth inhibition, 48 h
Quick rule: TGI of at least 30 µM means class 1, below that means class 0.

Reference set (5 entries):
| compound | classification |
| --- | --- |
| CN(C)CCNC(=O)c1cccc2nc3ccc4cccnc4c3nc12 | class 0 |
| CCN(CC)CCCOc1ccc2ncnc(Nc3ccc(Oc4cccc(C(F)(F)F)c4)c(Cl)c3)c2c1 | class 0 |
| COc1ccc(C2S/C(=C\c3cccc(OC)c3)C(=O)N2NC(=O)Cc2ccccc2)cc1 (stereo not given) | class 1 |
| O=C(/C=C/c1ccc2c(c1)OCO2)NCCc1ccco1 | class 1 |
| C/C(=N/NC(=S)N(C)C)c1ccccc1O | class 1 |

QUERY: Can `Nc1nc(Nc2ccc(Cl)cc2)sc1C(=O)c1c[nH]c2ccccc12` be said to have TGI at or above 30 µM?
RESULT: class 1

QUERY: Can `Cc1ccc(-c2c(C#N)[n+](=O)c3cc(F)c(F)cc3n2[O-])cc1` be said to have TGI at or above 30 µM?
RESULT: class 1

QUERY: Can O=C1NC(O)c2ccccc2O1 (stereo not given) be said to have TGI at or above 30 µM?
RESULT: class 1

QUERY: Can `COc1cccc(OC(=O)c2ccc(C(F)(F)F)nc2Nc2c(C)cccc2Cl)c1` be said to have TGI at or above 30 µM?
RESULT: class 1

Hey, just so you know, these numbers are from PubChem BioAssay (NCI).
